# Tested on: BT-549
# measurement description: NCI tumour cell line growth inhibition, 48 h
The source made the active and inactive calls. Cut-off read from the data, not from the text of the source: active = GI50 up to about 1.1 µM and inactive = higher.
experimental endpoint: GI50

# compound, GI50
measured = [
    ("O=C(CCc1ccccc1)NCCc1ccc(O)c(O)c1", "7.01 µM (inactive)"),
    ("CC1=NN(c2nc(N)nc(C(C#N)C(=O)c3cc4c(cc3Cl)Sc3nccn3S4(=O)=O)n2)C(C)(C)C1 (stereo unspecified)", "13.6 µM (inactive)"),
    ("O=c1c2cc(S(=O)(=O)O)ccc2nc(COc2ccc(Oc3ccc(Cl)cc3Cl)cc2)n1-c1ccc(Cl)cc1Oc1c(Cl)cccc1Cl", "21.9 µM (inactive)"),
    ("COC(=O)C(=O)C(C(=O)C(=O)Nc1cc(C)ccc1C)c1nc2ccccc2nc1O (stereo unspecified)", "> 100 µM (inactive)"),
    ("CC(C)(C)C1CCC2c3c([nH]c4ccccc34)C3C(=O)N(c4cc(Br)cc(Br)c4)C(=O)C3C2C1 (stereo unspecified)", "33.9 µM (inactive)"),
    ("Cc1cccc(-c2cc(O)c3cc(C)cnc3n2)c1", "0.292 µM (active)"),
]

Go through the items and report each one's GI50.
1. N#Cc1c(-c2ccc(Cl)cc2)c2c([nH]c1=O)-c1ccccc1SC2
2. O=C(C(=O)n1ccc2ccccc21)c1c[nH]c2ccccc12
3. OC(Cc1ccc2ccccc2n1)(C(F)(F)Cl)C(F)(F)Cl

Resp:
> 100 µM (inactive)
> 10 µM (inactive)
> 10 µM (inactive)

Hi team, please reply with GI50 for each item in this list.
1. CC(O)C1(CNc2cc(Cl)nc(N)n2)CCCCC1 (stereo unspecified)
2. O=C(Nc1nn(C(=O)c2cccnc2)c(=O)s1)c1ccc(Cl)cc1

Resp:
1. 70.1 µM (inactive)
2. > 100 µM (inactive)

----------
# Tested on: SNB-75
# measurement description: NCI tumour cell line growth inhibition, 48 h
Active and inactive are the calls of the source. Rule as the data show it: active = GI50 up to about 1.1 µM and inactive = higher.
experimental endpoint: GI50

Example results:
# compound, GI50
records = [
    ("CSc1nc(C)c2c(n1)SCC2", "> 10 µM (inactive)"),
    ("COC(=O)C1CC2CC(=NNC(N)=O)CC2C1 (stereo unspecified)", "> 100 µM (inactive)"),
    ("CC1(C)C2CCC13CS(=O)(=O)N1O[C@]13C(=O)O2 (stereo partly specified)", "60.8 µM (inactive)"),
    ("O=C1c2ccccc2C(=O)c2c1ccc1c2N=C(c2ccc(Br)cc2)CC(c2cccc3ccccc23)N1 (stereo unspecified)", "94.6 µM (inactive)"),
    ("CSc1[nH]cnc1C(N)=S", "> 100 µM (inactive)"),
    ("O=C(c1cc(Cl)cc(Cl)c1)N(C(=O)N1CCN(c2ccccc2)CC1)c1ccccc1", "> 100 µM (inactive)"),
]

Consider the following items and state reported GI50 for each.
1. CCN1C(=O)CS/C1=N/NC(=O)C(O)(c1ccccc1)C1C=CC=CC1 (stereo unspecified)
2. C[C@H]1C[C@H](C)c2ccccc2N(C)/C1=N\c1ccccc1
3. Cc1cn2c(/C=C3/C(=O)Nc4cccc(Cl)c43)c(Cl)nc2s1
4. COC(=O)c1csc(-c2csc(CCNC(=O)OC(C)(C)C)n2)n1
5. Cc1ccc(NC(=O)c2cc(S(=O)(=O)N3CCNNC3=O)c(S)cc2Cl)cc1
6. O=C(CCc1ccccc1)NCCc1ccc(O)c(O)c1
7. c1ccc2c(c1)ccc1ncccc12
8. O=C(O)c1cccc(S(=O)(=O)NN2C(=O)CSC2c2c(O)ccc3ccccc23)c1 (stereo unspecified)

Resp:
1. > 10 µM (inactive)
2. 57.1 µM (inactive)
3. 14.2 µM (inactive)
4. 51.8 µM (inactive)
5. > 100 µM (inactive)
6. 84.5 µM (inactive)
7. > 100 µM (inactive)
8. 30.6 µM (inactive)

For every item in the list below, what is its measured GI50?
1. CC(C)CCCC(C)[C@H]1CCC2[C@@H]3CCC4Nc5nocc5C[C@]4(C)C3CC[C@@]21C (stereo partly specified)
2. Cc1[nH]c2ccccc2c1-c1cc(-c2cc(-c3c(C)[nH]c4ccccc34)on2)no1

Resp:
15.6 µM (inactive)
18.2 µM (inactive)

----------
Kindly supply the reported GI50 values for the records listed here.
# Tested on: SN12C
# measurement description: NCI tumour cell line growth inhibition, 48 h
The source made the active and inactive calls. Cut-off read from the data, not from the text of the source: active = GI50 up to about 1.1 µM and inactive = higher.

Examples from the recorded data:
# compound, experimental target, GI50
records = [
    ("Cc1cc(S(=O)(=O)Nc2nnc3ccccn23)c(S)cc1Cl", "SN12C", "> 100 µM (inactive)"),
    ("COc1ccc(-c2cc3c(nn2)-c2ccccc2C3=O)cc1", "SN12C", "> 10 µM (inactive)"),
    ("CC(=O)OCC1OC(n2c(C#N)cc(=O)[nH]c2=O)CC1OC(C)=O (stereo unspecified)", "SN12C", "> 100 µM (inactive)"),
    ("Brc1cccc(Nc2nc(-c3cccs3)nc3ccc(Br)cc23)c1", "SN12C", "22.7 µM (inactive)"),
]

Please supply GI50 for each of the following items, keeping them in order.
1. COc1ccccc1-c1c(C#N)c(N)[nH]c(=S)c1C#N
2. CCN(CC)CCC(=O)Nc1ccc2sc3ccccc3c(=O)c2n1

Resp:
25.4 µM (inactive)
23 µM (inactive)

----------
# Tested on: RPMI-8226
# measurement description: NCI tumour cell line growth inhibition, 48 h
The source made the active and inactive calls. Cut-off read from the data, not from the text of the source: active = GI50 up to about 1.1 µM and inactive = higher.
Assign a class; possible classes are yes (1) for active, no (0) for inactive

Req: Assay result, entry C=C1C[C@@H]2CC[C@@]34CC5O[C@H]6C(O[C@H]7CC[C@H](CC(=O)O[C@@H]8[C@@H](C)[C@@H]9O[C@@H]%10C[C@]%11(C[C@@H]%12O[C@]%13(C[C@H](C)[C@@H]%14O[C@@H]%15CC(C(O)CO)O[C@@H]%15C[C@@H]%14O%13)C[C@H](C)[C@@H]%12O%11)O[C@@H]%10C[C@@H]9O[C@H]8CC8O[C@@H](CC[C@@H]1O2)C[C@@H](C)C8(O)CO)O[C@@H]7[C@@H]6O3)[C@H]5O4 (some centres undefined) — outcome?
Resp: yes (1)

Req: What did the test return for CN1CCN(CN2C(=O)C3C4C=CC(C3C2=O)C2C3C(=O)N(CN5CCN(C)CC5)C(=O)C3C42)CC1 (centres undefined) ?
Resp: no (0)

Req: Outcome logged for Cc1ccc(Nc2n[nH]c(=S)s2)cc1C in this assay:
Resp: no (0)

Req: Outcome? Cc1sc2nc3n(c(=O)c2c1C)N=CN(c1ccc(F)cc1)C3
Resp: no (0)

----------
For each entry below, report its GI50 value.
# Test system: SNB-19
# measurement description: NCI tumour cell line growth inhibition, 48 h
Active and inactive are the calls of the source. No stated cut-off is given here; in the data, active = GI50 up to about 1.1 µM and inactive = higher.

Worked examples follow.
# compound, experimental target, GI50
measured = [
    ("COC1=C2CC(C)CC(OC)C(OC(=O)CCCN)C(C)/C=C(\\C)C(OC(N)=O)C(OC)/C=C\\C=C(/C)C(=O)NC(=CC1=O)C2=O (stereo unspecified)", "SNB-19", "15.4 µM (inactive)"),
    ("CC(O)C1(CNc2cc(Cl)nc(N)n2)CCCCC1 (stereo unspecified)", "SNB-19", "> 100 µM (inactive)"),
    ("O=C(O)c1cc2ccc3ccccc3c2oc1=O", "SNB-19", "> 100 µM (inactive)"),
]

Could you tell me GI50 for each of these compounds? They are listed below.
1. c1ccc2cc3[s+]snc3cc2c1
2. Cc1cn(CCCCCCOC(=O)NC(CCCNC(=N)N)C(=O)O)c(=O)[nH]c1=O (stereo unspecified)

Resp:
1: > 100 µM (inactive); 2: > 100 µM (inactive)

Below are some compounds; for each one, tell me its GI50.
1. COc1cc(/C=C(\NC(=O)c2ccccc2)c2nc3cc([N+](=O)[O-])ccc3[nH]2)cc(OC)c1OC
2. COc1cccc(NC(=O)CC(=O)N2N=C(N(CCC#N)c3ccccc3C)CC2c2ccccc2)c1 (stereo unspecified)
3. C=C1CCc2ccccc2C1=O
4. Cc1ccc(S(=O)(=O)N/N=C2\C(=O)C3CC2C(Cl)C3Cl)cc1 (stereo unspecified)
5. O=C1CC2(CCC3=C(O2)c2ccccc2NC(=O)C3)C(=O)c2ccccc2N1 (stereo unspecified)
6. N=C(N)/N=C(\N)Nc1cnccn1

Resp:
1: > 100 µM (inactive); 2: > 100 µM (inactive); 3: > 100 µM (inactive); 4: > 100 µM (inactive); 5: 98.6 µM (inactive); 6: > 100 µM (inactive)

----------
# Tested on: HCT-116
# measurement description: NCI tumour cell line growth inhibition, 48 h
The source made the active and inactive calls. Cut-off read from the data, not from the text of the source: active = GI50 up to about 1.1 µM and inactive = higher.
experimental endpoint: GI50

Example compounds with recorded GI50:
# compound, GI50
measured = [
    ("CC(N)(CC(O)(C(F)(F)Cl)C(F)(F)Cl)C(=O)O (centres undefined)", "> 10 µM (inactive)"),
    ("COc1cc2c(cc1OCCCCN1C(=O)c3cccc4cccc(c34)C1=O)N=C[C@@H]1CCCN1C2=O", "3.59 µM (inactive)"),
    ("O=C1/C(=C/c2ccccc2)NC(=S)N1CN1CCCCC1", "> 100 µM (inactive)"),
]

Could you now consider this next compound?
Req: Request body: readout GI50, system HCT-116, query CN(C)CCNc1ccc(NCCN(C)C)c2c1C(=O)c1ncsc1C2=O . Return the value.
Resp: 8.18 µM (inactive)

Recorded values, source ChEMBL document CHEMBL1201862.
